Assay: Compatibility of nanocrystalline silver with excipients
Type: physicochemical
Details: 10% aqueous solution of excipient mixed with nanocrystalline silver in glass vial, 40° C. overnight
METRIC: Reaction with nanocrystalline silver

1. CCCCCCCCCCCCCCCCCC(=O)OCC(O)CO (stereo not drawn) [Glycerol monostearate]
Brown discoloration
2. COC(=O)c1ccc(O)cc1
Brown discoloration
